Experiment: HT1080 cell viability loss – fluorescence readout (AID 620);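 note: cells exposed to compound overnight then 4 h with Alamar Blue; 0% = vehicle DMSO and 100% = killing control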
Settings: at 10 µM
The whole screen tested about 87,000 compounds, of which about 360 (0.41%) were called active. Cut-off read from the data, not from the text of the source: active = cytotoxicity above about 50%; inactive = the rest. Only a selection was taken, and actives are over-represented in it overall.
Outcome codes: yes (1) = active, no (0) = inactive

{"compound": "CSc1cc(-c2ccccc2)n(Cc2ccccc2Cl)c(=O)c1C#N", "classification": "yes (1)"}
{"compound": "CC(C)Cn1c(=O)c2c(c3ccccc31)OC(C)C(=O)N2 (configuration not stated)", "classification": "no (0)"}
{"compound": "CC(=O)N1CCN(Cc2ccc(Br)s2)CC1", "classification": "no (0)"}
{"compound": "CCOC(=O)CSC1=C(C#N)C(c2ccc(C)o2)CC(=O)N1 (configuration not stated)", "classification": "yes (1)"}
{"compound": "CCn1ncc(C2=NOC(C(=O)NCc3ccccc3)C2)c1C (configuration not stated)", "classification": "yes (1)"}
{"compound": "COC(=O)CSc1nc(-c2ccc(F)cc2)cc(C(F)(F)F)n1", "classification": "no (0)"}
{"compound": "COc1ccc(S(=O)(=O)N2CCN(S(=O)(=O)c3ccc4c(c3)OCCO4)CC2)cc1", "classification": "no (0)"}
{"compound": "Cc1nc(NC2=NCN(CCN3CCOCC3)CN2)nc2c(C)cccc12", "classification": "no (0)"}
{"compound": "COC(=O)c1ccccc1NC(=O)Cn1c(-c2nonc2N)nc2ccccc21", "classification": "no (0)"}
{"compound": "Cc1occc1C(=O)Nc1ccc2c(c1)CCC2", "classification": "no (0)"}
{"compound": "CC(C)(C)C(=O)Nc1sc2c(c1C#N)CCCCC2", "classification": "no (0)"}
{"compound": "COc1cc(C2CC(=O)c3cnc(N4CCN(Cc5ccccc5)CC4)nc3C2)cc(OC)c1OC (configuration not stated)", "classification": "yes (1)"}
{"compound": "CCn1ncc(C2=NOC(C(=O)Nc3ccc(C)cc3)C2)c1C (configuration not stated)", "classification": "no (0)"}
{"compound": "CCN1CCN(c2ncc3c(n2)CC(c2ccc(OC)c(OC)c2)CC3=O)CC1 (configuration not stated)", "classification": "no (0)"}
{"compound": "Cc1cc(NCCCn2ccnc2)n2ncc(-c3ccccc3)c2n1", "classification": "no (0)"}
{"compound": "CCSC1=C(C#N)C(c2ccc(C)s2)CC(=O)N1 (configuration not stated)", "classification": "no (0)"}
{"compound": "COc1ccccc1-c1cc(C(F)(F)F)nc(S(=O)(=O)CCCC(=O)O)n1", "classification": "no (0)"}
{"compound": "Cc1cc(=O)oc2cc(OCC3CC(c4ccc(Cl)cc4)=NO3)ccc12 (configuration not stated)", "classification": "no (0)"}
{"compound": "COc1ccc(-c2cc(C(F)(F)F)nc(S(C)(=O)=O)n2)cc1OC", "classification": "no (0)"}
{"compound": "CCn1ncc(C2=NOC(C(=O)NCc3ccc(Cl)cc3)C2)c1C (configuration not stated)", "classification": "yes (1)"}
{"compound": "Cc1cccc(OCC(=O)NCCN2CCOCC2)c1", "classification": "no (0)"}
{"compound": "CC(C)(C)c1cc(NCCCn2ccnc2)n2ncc(-c3ccc(Cl)cc3)c2n1", "classification": "no (0)"}
{"compound": "COc1ccc(C2CC(=O)c3cnc(N4CCN(Cc5ccccc5)CC4)nc3C2)cc1 (configuration not stated)", "classification": "no (0)"}
{"compound": "CO/N=C/NC(=O)Cc1cn(-c2ncc(C(F)(F)F)cc2Cl)c2ccccc12", "classification": "no (0)"}
{"compound": "C=CCn1c(NC)cc(=O)n(C)c1=O", "classification": "no (0)"}
{"compound": "Cc1nn(-c2ccc(F)cc2)c2sc(C(=O)N3CCCCCC3)cc12", "classification": "no (0)"}
{"compound": "Cn1c(=N)n(CC(O)c2ccco2)c2ccccc21 (configuration not stated)", "classification": "no (0)"}
{"compound": "CCCCCCSC1=C(C#N)C(c2ccc(C)o2)CC(=O)N1 (configuration not stated)", "classification": "no (0)"}
{"compound": "CS(=O)(=O)c1nc(-c2ccccc2)cc(C(F)(F)F)n1", "classification": "yes (1)"}
{"compound": "Cc1cc(=O)oc2cc(OCC3CC(c4ccccc4)=NO3)ccc12 (configuration not stated)", "classification": "no (0)"}
{"compound": "COc1ccc(-c2cc(C(F)(F)F)nc(S(C)(=O)=O)n2)cc1", "classification": "no (0)"}
{"compound": "CSc1cc(-c2ccccc2)n(Cc2c(Cl)cccc2Cl)c(=O)c1C#N", "classification": "yes (1)"}
{"compound": "COc1nnc(-c2ccc(C)c(S(=O)(=O)NCCO)c2)c2ccccc12", "classification": "no (0)"}
{"compound": "CCC(=O)Nc1nonc1-c1nc2ccccc2n1CC(C)C", "classification": "no (0)"}
{"compound": "COc1cc(C2CC(=O)c3cnc(N)nc3C2)cc(OC)c1OC (configuration not stated)", "classification": "no (0)"}
{"compound": "c1ccc(CNc2nc3ccccc3[nH]2)cc1", "classification": "no (0)"}
{"compound": "CCOC(=O)CS(=O)(=O)c1nc(-c2ccccc2)cc(C(F)(F)F)n1", "classification": "no (0)"}
{"compound": "CN1/C(=C\\C(=O)C(F)F)C(C)(C)c2ccccc21", "classification": "no (0)"}
{"compound": "Cc1cc2nc(NC3=NCN(CCCN4CCOCC4)CN3)nc(C)c2cc1C", "classification": "no (0)"}
{"compound": "Cc1nn(C)c(C)c1NC(=O)c1ccnn1C", "classification": "no (0)"}
{"compound": "COC(=O)CCS(=O)(=O)c1nc(-c2ccccc2)cc(C(F)(F)F)n1", "classification": "no (0)"}
{"compound": "Cc1cccc(NS(=O)(=O)c2cccc3cccnc23)n1", "classification": "no (0)"}
{"compound": "CCn1ncc(C2=NOC(C(=O)NCC(C)C)C2)c1C (configuration not stated)", "classification": "no (0)"}
{"compound": "Cc1cc(N2CCCC2)nc(-c2ccccc2O)n1", "classification": "no (0)"}
{"compound": "O=C(CSCc1c(Cl)cccc1Cl)NCc1ccco1", "classification": "no (0)"}
{"compound": "Cn1c(=N)n(CC(=O)O)c2ccccc21", "classification": "no (0)"}
{"compound": "Cn1c(=O)c2c(-c3ccccc3)n(-c3ccccc3O)cc2n(C)c1=O", "classification": "no (0)"}

Data credit: PubChem BioAssay AID620
